Values compiled from PubChem BioAssay (NCI).

Test system: CCRF-CEM leukemia
Assay: NCI tumour cell line growth inhibition, 48 h; in the data active = GI50 below about 0.43 µM; inactive = the rest
Classes used: class 1 for active, class 0 for inactive

- ITEM SMILES: "Cc1ncc(CCCN(C)C)cc1Nc1ncc2c(n1)-c1ccc(C(F)(F)F)cc1NC(=S)C2"
  CLASS ASSIGNMENT: "class 1"
- ITEM SMILES: "Cc1ccc2[nH]c(O)c(N=Nc3ccc(S(N)(=O)=O)cc3)c2c1"
  CLASS ASSIGNMENT: "class 0"
- ITEM SMILES: "ClCc1cccc(Cn2cnc3nc(Cl)nc(Cl)c32)c1"
  CLASS ASSIGNMENT: "class 1"
- ITEM SMILES: "COc1ccc(/C=C/C(=O)C(CC2CCC2)C(=O)/C=C/c2ccc(OC)c(OC)c2)cc1OC"
  CLASS ASSIGNMENT: "class 0"
- ITEM SMILES: "COc1cccc(C#Cc2ccccc2C#CCCCCO)c1"
  CLASS ASSIGNMENT: "class 0"

###

TGI: recorded values
Tested on: NCI-H522 lung
Assay: NCI tumour cell line growth inhibition, 48 h
MEASURED ATTRIBUTE: TGI (µM)

- COMPOUND: "C/C(CC(=O)NCCc1ccccc1)=N\\NC(=O)C[n+]1ccccc1"
  MEASURED ATTRIBUTE: "TGI"
  UNIT OF MEASUREMENT: "µM"
  RESULT OPERATOR: ">"
  VALUE REPORTED: 100
- COMPOUND: "CC1=C(CO)C(=O)O[C@@H]([C@@H](CO)[C@H]2CCC3C4C[C@@H](O)[C@@]5(O)CC=CC(=O)[C@]5(C)C4CC[C@@]32C)C1 (some centres undefined)"
  MEASURED ATTRIBUTE: "TGI"
  UNIT OF MEASUREMENT: "µM"
  RESULT OPERATOR: ">"
  VALUE REPORTED: 100
- COMPOUND: "CC(C)(Cl)C(Br)CCC(=CCCl)CBr (mixture of isomers)"
  MEASURED ATTRIBUTE: "TGI"
  UNIT OF MEASUREMENT: "µM"
  RESULT OPERATOR: "="
  VALUE REPORTED: 2.24
- COMPOUND: "CSc1cnc2ccccc2c1SC1CN(Cc2ccccc2)c2ccccc2C1=O (centres undefined)"
  MEASURED ATTRIBUTE: "TGI"
  UNIT OF MEASUREMENT: "µM"
  RESULT OPERATOR: ">"
  VALUE REPORTED: 100
- COMPOUND: "CC(=O)O[C@H]1CC[C@@]2(C)C(=CC[C@H]3[C@@H]4C[C@H](N5CCOCC5)[C@H](OC(C)=O)[C@@]4(C)CC[C@@H]32)C1"
  MEASURED ATTRIBUTE: "TGI"
  UNIT OF MEASUREMENT: "µM"
  RESULT OPERATOR: ">"
  VALUE REPORTED: 100
- COMPOUND: "O=C(CN(c1ccccc1)c1ccccc1)n1nnc2ccccc21"
  MEASURED ATTRIBUTE: "TGI"
  UNIT OF MEASUREMENT: "µM"
  RESULT OPERATOR: "="
  VALUE REPORTED: 59.1
- COMPOUND: "NC(CCC(=O)NC(CSCC1C(=O)Nc2ccccc21)C(=O)NCC(=O)O)C(=O)O (centres undefined)"
  MEASURED ATTRIBUTE: "TGI"
  UNIT OF MEASUREMENT: "µM"
  RESULT OPERATOR: "="
  VALUE REPORTED: 2.8
- COMPOUND: "CC(C)(C[C@H]1CN(S(=O)(=O)c2cccc(C(F)(F)F)c2)c2cc(-c3cc(F)cc(OC(F)F)c3)ccc2O1)C(=O)O"
  MEASURED ATTRIBUTE: "TGI"
  UNIT OF MEASUREMENT: "µM"
  RESULT OPERATOR: "="
  VALUE REPORTED: 10.7
- COMPOUND: "CCCCCCCCCCCC(=O)OCC1OC(OC)C(NC(=O)N(CCCl)N=O)C(O)C1O (centres undefined)"
  MEASURED ATTRIBUTE: "TGI"
  UNIT OF MEASUREMENT: "µM"
  RESULT OPERATOR: "="
  VALUE REPORTED: 24.7
- COMPOUND: "O=C1CC2c3ccccc3CCC2c2ccccc21 (centres undefined)"
  MEASURED ATTRIBUTE: "TGI"
  UNIT OF MEASUREMENT: "µM"
  RESULT OPERATOR: "="
  VALUE REPORTED: 46.7
- COMPOUND: "C=CCOc1ccc(C2C(C(=O)OCC)C(=O)CC(C)(O)C2C(=O)OCC)cc1OC (centres undefined)"
  MEASURED ATTRIBUTE: "TGI"
  UNIT OF MEASUREMENT: "µM"
  RESULT OPERATOR: ">"
  VALUE REPORTED: 100
- COMPOUND: "COc1c(C(C)C)cc2c3c1OC(=O)[C@@]31CCCC(C)(C)C1CC2 (some centres undefined)"
  MEASURED ATTRIBUTE: "TGI"
  UNIT OF MEASUREMENT: "µM"
  RESULT OPERATOR: "="
  VALUE REPORTED: 38.7
- COMPOUND: "COc1ccc(CC2NCCc3cc(OC)c(OC)cc32)cc1Br (centres undefined)"
  MEASURED ATTRIBUTE: "TGI"
  UNIT OF MEASUREMENT: "µM"
  RESULT OPERATOR: ">"
  VALUE REPORTED: 100
- COMPOUND: "O=C1c2cccnc2-c2nccc3c2c1nc1cc(Br)ccc13"
  MEASURED ATTRIBUTE: "TGI"
  UNIT OF MEASUREMENT: "µM"
  RESULT OPERATOR: "="
  VALUE REPORTED: 0.29
- COMPOUND: "CCOc1cc(C(C)(C)C)ccc1C1=N[C@@](C)(c2ccc(Cl)cc2)[C@@](C)(c2ccc(Cl)cc2)N1C(=O)N1CCN(CCCS(C)(=O)=O)CC1"
  MEASURED ATTRIBUTE: "TGI"
  UNIT OF MEASUREMENT: "µM"
  RESULT OPERATOR: "="
  VALUE REPORTED: 39.2
- COMPOUND: "O=c1c2ccccc2c(=O)c2c1[nH]c1c(-c3ccccc3)c(-c3ccccc3)c(=O)c12"
  MEASURED ATTRIBUTE: "TGI"
  UNIT OF MEASUREMENT: "µM"
  RESULT OPERATOR: "="
  VALUE REPORTED: 5.73
- COMPOUND: "C1C[OH+]CC[OH+]CC[OH+]CC[OH+]CC[OH+]1.[Cl-].[V]"
  MEASURED ATTRIBUTE: "TGI"
  UNIT OF MEASUREMENT: "µM"
  RESULT OPERATOR: ">"
  VALUE REPORTED: 100
- COMPOUND: "COc1ccc2c(cnc3c4cc(OC)c(OC)cc4ccc23)c1"
  MEASURED ATTRIBUTE: "TGI"
  UNIT OF MEASUREMENT: "µM"
  RESULT OPERATOR: ">"
  VALUE REPORTED: 100
- COMPOUND: "COC1C=COC2(C)Oc3c(C)c(O)c4c(O)c(c(C5SCCS5)c(O)c4c3C2=O)NC(=O)C(C)=C/C=C\\C(C)C2OC(C)(C)OC(C2C)C(C)C(OC(C)=O)C1C (centres undefined)"
  MEASURED ATTRIBUTE: "TGI"
  UNIT OF MEASUREMENT: "µM"
  RESULT OPERATOR: "="
  VALUE REPORTED: 23

###

TGI: recorded values
System: SW-620 colon
Experiment: NCI tumour cell line growth inhibition, 48 h

- MOLECULE: "CCNC(=O)Nc1cccc(NC(=O)NCC)n1"
  TGI: "> 100 µM"
- MOLECULE: "Cc1ccc(S(=O)(=O)NC(=O)N[C@@H](Cc2cnc[nH]2)C(=O)O)cc1"
  TGI: "> 100 µM"
- MOLECULE: "NC(=O)NCc1c(C(N)=O)ncn1Cc1ccccc1"
  TGI: "> 100 µM"
- MOLECULE: "COc1ccc(/C=C/C(=O)C(CC2CCC2)C(=O)/C=C/c2ccc(OC)c(OC)c2)cc1OC"
  TGI: "3.57 µM"
- MOLECULE: "O=S(=O)(Nc1cc(Sc2cccc3cccnc23)c(O)c2ccccc12)c1ccccc1"
  TGI: "11.6 µM"
- MOLECULE: "Nc1ccc(C(=O)N2CCC[C@H]2CO)c(N)c1"
  TGI: "> 100 µM"
- MOLECULE: "COc1ccc(/C=C/c2cc(OC)cc(=O)o2)cc1"
  TGI: "> 100 µM"
- MOLECULE: "N#Cc1cccnc1Cl"
  TGI: "> 100 µM"
- MOLECULE: "C=C1CN2CC(=C)CN(C1)CS(=O)(=O)N1CC(=C)CN(CC(=C)C1)S(=O)(=O)N1CC(=C)CN(CC(=C)C1)S(=O)(=O)C2"
  TGI: "> 100 µM"
- MOLECULE: "O=C(CN(c1ccccc1)c1ccccc1)n1nnc2ccccc21"
  TGI: "> 100 µM"
- MOLECULE: "CC(=O)O[C@H]1CC[C@@]2(C)C(=CC[C@H]3[C@@H]4C[C@H](N5CCOCC5)[C@H](OC(C)=O)[C@@]4(C)CC[C@@H]32)C1"
  TGI: "> 100 µM"
- MOLECULE: "COC(=O)C1=C(C)NC(C)=C(C(=O)OC)C1c1nc2sccn2c1[N+](=O)[O-]"
  TGI: "> 100 µM"
- MOLECULE: "Clc1ccc(C=Nc2ccc3c(c2)Cc2ccccc2-3)c(Cl)c1"
  TGI: "> 100 µM"
- MOLECULE: "Cn1c2ccccc2c(=NNc2cccc(C(=O)O)c2)c2ccccc21"
  TGI: "35.5 µM"
- MOLECULE: "Cn1c(COC(=O)Nc2ccccc2)c(COC(=O)Nc2ccccc2)c2ccc3cc(Cl)c(Cl)cc3c21"
  TGI: "> 75 µM"
- MOLECULE: "CCn1c(-c2ccc(OC(C)=O)cc2)c(C)c2cc(OC(C)=O)ccc21"
  TGI: "82.2 µM"
- MOLECULE: "COc1ccc(CC2NCCc3cc(OC)c(OC)cc32)cc1Br (stereo unspecified)"
  TGI: "> 70.5 µM"
- MOLECULE: "COc1ccc2cc(C(C)C(=O)N3CCOC3=O)ccc2c1 (stereo unspecified)"
  TGI: "> 100 µM"
- MOLECULE: "O=C1CCCC[C@H]1[C@H]1CCC[C@@H]([C@H]2CCCCC2=O)C1=O"
  TGI: "> 100 µM"
- MOLECULE: "CC(C)(C[C@H]1CN(S(=O)(=O)c2cccc(C(F)(F)F)c2)c2cc(-c3cc(F)cc(OC(F)F)c3)ccc2O1)C(=O)O"
  TGI: "21.5 µM"
- MOLECULE: "C#Cc1c(I)n(C2OC(CO[Si](C)(C)C(C)(C)C)C3OC(C)(C)OC32)c(=O)[nH]c1=O (stereo unspecified)"
  TGI: "6.42 µM"
